Below is a list of entries, each paired with its recorded Ratio with respect to Non-Coating value.
- target_desc: T1, CRD2-3
- T1 construct: also called fragmented human CD137-Fc fusion protein CRD2-3
- experimental_details: ELISA, coated CD137-Fc protein 2 µg/mL, antibody 10 or 5 µg/mL; absorbance 620 nm divided by that of the uncoated well
quantity_name: Ratio with respect to Non-Coating

[[record]]
binder = "R7 (antibody, V domains shown, Synthetic library clone; Fab on phage in the phage ELISA) VH: QVQLLESGGGLVQPGGSLRLSCAASGFTFSSYAMSWVRQAPGKGLEWVSAISGSGGSTYYADSVKGRFTISRDNSKNTLYLQMNSLRAEDTAVYYCARDRAMYHPSFNYWGQGTLVTVSS VL: DIQMTQSPSSLSASVGDRVTITCRASQSISSYLNWYQQKPGKAPKLLIYAASSLQSGVPSRFSGSGSGTDFTLTISSLQPEDFATYYCQQFNSYPLTFGGGTKVEIK"
reported_result = 5.7

[[record]]
binder = "R2 (antibody, V domains shown, Naive library clone; Fab on phage in the phage ELISA) VH: EVQLQESGPGLVKPSETLSLTCTVSGGSISSSSYYWGWIRQPPGKGLEWIGSIHYTGSTYYNPSLKSRVTISVDTSKNQFSLKLSSVTAADTAVYYCARLNPSIAARPGAFDIWGQGTMVTVSS VL: QSVLTQPPSVSAAPGQKVTISCSGSSSNIANNFVSWFQQLPGTAPKLLIYDNNKRPSGIPDRFSGSKSGTSATLGITGLQTGDEADYYCGTWDRSLSAGVFGGGTKVTVL"
reported_result = 0.9

[[record]]
binder = "B (antibody, human IgG1, kappa, V domains shown, also called Control B) VH: QVQLQQWGAGLLKPSETLSLTCAVYGGSFSGYYWSWIRQSPEKGLEWIGEINHGGYVTYNPSLESRVTISVDTSKNQFSLKLSSVTAADTAVYYCARDYGPGNYDWYFDLWGRGTLVTVSS VL: EIVLTQSPATLSLSPGERATLSCRASQSVSSYLAWYQQKPGQAPRLLIYDASNRATGIPARFSGSGSGTDFTLTISSLEPEDFAVYYCQQRSNWPPALTFGGGTKVEIKR"
reported_result = 1.8

[[record]]
binder = "R3 (antibody, V domains shown, Naive library clone; Fab on phage in the phage ELISA) VH: EVQLVQSGAEVKKPGASVKVSCKASGYTFTSYYTHWVRQAPGQGLEWMGIINPSGGSTSYAQKFQGRVTMTRDTSTSTVYMELSSLRSEDTAVYYCARGAPEYSSSSDYWGQGTMVTVSS VL: QSALTQPASVSGSPGQSITISCTGTSSDVGGYNFVSWYQQHPGKAPKLMIYDVSKRPSGVSTRFSGSKSGNTASLTISGLQAEDEADYYCNSYTTSSTRWMFGGGTKVTVL"
reported_result = 1.6

[[record]]
binder = "R1 (antibody, V domains shown, Naive library clone; Fab on phage in the phage ELISA) VH: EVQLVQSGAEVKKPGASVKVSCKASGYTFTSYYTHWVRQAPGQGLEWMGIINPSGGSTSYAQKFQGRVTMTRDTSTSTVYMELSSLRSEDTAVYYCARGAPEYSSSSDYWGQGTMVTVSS VL: QSALTQPASVSGSPGQSITISCTGTSSDVGGYNYVSWYQQHPGKAPKLMIYDVSNRPSGVSNRFSGSKSGNTASLTISGLQAEDEADYYCSSYTSSSTRWVFGGGTKLTVL"
reported_result = 1.8

[[record]]
binder = "R4 (antibody, V domains shown, Naive library clone; Fab on phage in the phage ELISA) VH: EVQLVQSGAEVKKPGASVKVSCKASGYTFSGYYMHWVRQAPGQGLEWMGWINPNSGDTNYAQNFQGRVTMTRDTSISTAYMELSRLRSDDTAVYYCARDGTGYSSSPDYWGQGTPVTVSS VL: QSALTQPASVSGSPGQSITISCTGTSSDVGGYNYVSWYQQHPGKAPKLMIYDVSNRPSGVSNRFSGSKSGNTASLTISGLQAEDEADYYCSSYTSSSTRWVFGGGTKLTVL"
reported_result = 1.1

